- Tested on: matched duplex (27-mer) (DNA, duplex) GACCAGCTTATCACCCCTAGATACCAT/ATGGTATCTAGGGGTGATAAGCTGGTC
- assay.notes: FRET titration (MLCT donor to Cy5.5-labeled DNA), dose-response fit
- assay.context: 200 mM NaCl; 5 mM Tris, pH 7.5; 1 μM DNA
readout: Kd (µM)

[[record]]
smiles_text = "[Ru+2].c1ccc(-c2ccccn2)nc1.c1ccc(-c2ccccn2)nc1.c1ccc2nc3c4cccnc4c4ncccc4c3nc2c1"
readout = "Kd"
reported_value = 5.1

[[record]]
smiles_text = "Cc1ccc(-c2ccc(C)cn2)nc1.Cc1ccc(-c2ccc(C)cn2)nc1.[Ru+2].c1ccc2nc3c4cccnc4c4ncccc4c3nc2c1"
readout = "Kd"
reported_value = 4.7

[[record]]
smiles_text = "Cc1ccc(-c2ccc(C)cn2)nc1.[Ru+2].c1ccc(-c2nc3c4cccnc4c4ncccc4c3[nH]2)cc1.c1ccc(-c2nc3c4cccnc4c4ncccc4c3[nH]2)cc1"
readout = "Kd"
reported_value = 7.9

[[record]]
smiles_text = "Cc1ccc(-c2ccc(C)cn2)nc1.[Ru+2].c1ccc2nc3c4cccnc4c4ncccc4c3nc2c1.c1ccc2nc3c4cccnc4c4ncccc4c3nc2c1"
readout = "Kd"
reported_value = 8.1

